Reference source for all entries: patent US11396502B2

Reported values of IC50 for individual entries
Target: PI3Kδ (p110δ/p85α) (Homo sapiens (Human))
Sequence (O00329 whole entry): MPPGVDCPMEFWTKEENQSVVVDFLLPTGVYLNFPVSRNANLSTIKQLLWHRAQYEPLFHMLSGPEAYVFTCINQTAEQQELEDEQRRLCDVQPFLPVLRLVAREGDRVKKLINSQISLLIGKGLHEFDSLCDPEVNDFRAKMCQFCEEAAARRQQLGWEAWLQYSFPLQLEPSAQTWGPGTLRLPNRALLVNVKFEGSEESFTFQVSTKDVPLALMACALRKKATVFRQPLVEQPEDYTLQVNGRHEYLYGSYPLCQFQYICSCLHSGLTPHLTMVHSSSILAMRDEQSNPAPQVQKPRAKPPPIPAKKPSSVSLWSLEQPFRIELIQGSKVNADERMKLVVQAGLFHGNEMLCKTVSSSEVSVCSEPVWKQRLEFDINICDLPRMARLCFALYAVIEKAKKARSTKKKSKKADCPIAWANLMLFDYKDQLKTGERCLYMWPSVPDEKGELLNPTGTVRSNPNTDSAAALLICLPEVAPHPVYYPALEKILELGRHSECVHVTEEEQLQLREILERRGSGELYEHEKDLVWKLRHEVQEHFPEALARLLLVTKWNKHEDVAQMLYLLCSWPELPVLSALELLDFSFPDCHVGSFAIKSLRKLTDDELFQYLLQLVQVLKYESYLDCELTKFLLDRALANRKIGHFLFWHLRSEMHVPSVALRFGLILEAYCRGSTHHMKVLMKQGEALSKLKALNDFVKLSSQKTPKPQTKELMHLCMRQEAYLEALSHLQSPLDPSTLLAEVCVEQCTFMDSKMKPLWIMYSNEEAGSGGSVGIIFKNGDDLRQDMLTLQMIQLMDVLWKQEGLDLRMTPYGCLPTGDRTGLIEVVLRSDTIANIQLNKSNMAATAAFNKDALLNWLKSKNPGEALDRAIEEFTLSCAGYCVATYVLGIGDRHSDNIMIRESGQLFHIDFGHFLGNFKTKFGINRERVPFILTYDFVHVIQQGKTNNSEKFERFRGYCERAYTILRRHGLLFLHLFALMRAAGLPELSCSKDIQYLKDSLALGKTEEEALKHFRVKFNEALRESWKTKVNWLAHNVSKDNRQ
Sequence (P27986 whole entry partner): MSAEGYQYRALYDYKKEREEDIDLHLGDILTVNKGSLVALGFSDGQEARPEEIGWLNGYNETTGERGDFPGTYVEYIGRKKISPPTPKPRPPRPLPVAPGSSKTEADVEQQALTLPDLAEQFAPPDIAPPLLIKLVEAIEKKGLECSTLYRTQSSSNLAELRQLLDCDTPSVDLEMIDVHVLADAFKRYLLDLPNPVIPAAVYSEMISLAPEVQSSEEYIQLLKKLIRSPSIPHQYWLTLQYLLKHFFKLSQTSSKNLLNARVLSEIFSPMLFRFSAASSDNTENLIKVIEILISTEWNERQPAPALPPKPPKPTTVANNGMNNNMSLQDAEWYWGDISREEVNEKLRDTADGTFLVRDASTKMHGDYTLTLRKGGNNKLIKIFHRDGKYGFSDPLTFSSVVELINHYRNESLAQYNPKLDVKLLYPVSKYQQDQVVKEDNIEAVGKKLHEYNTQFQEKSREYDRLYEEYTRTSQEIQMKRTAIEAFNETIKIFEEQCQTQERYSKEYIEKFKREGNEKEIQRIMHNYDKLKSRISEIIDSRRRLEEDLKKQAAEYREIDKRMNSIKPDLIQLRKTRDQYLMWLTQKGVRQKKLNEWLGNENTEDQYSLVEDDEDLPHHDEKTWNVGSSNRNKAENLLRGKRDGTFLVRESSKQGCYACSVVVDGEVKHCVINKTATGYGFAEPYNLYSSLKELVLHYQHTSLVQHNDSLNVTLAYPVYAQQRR
Experiment: PI3Kδ scintillation proximity assay
Conditions: recombinant human PI3Kδ 3.4 nM, 20 μM PIP2, 2 μM ATP, 120 min, room temperature
Counter-ions that a name gives are not always drawn.

# Molecule, IC50
data = [
    ("Cc1[nH]c(-c2cc(-c3cc4c(c(S(C)(=O)=O)c3)C(=O)N([C@@H](C)C3CC3)C4)ccn2)nc1C(=O)NC12CC(C1)C2 [Example 7c, trifluoroacetate salt]", "100 to 500 nM"),
    ("Cc1nc(-c2cc(-c3cc4c(c(C(O)CO)c3)C(=O)N([C@@H](C)C3CC3)C4)ccn2)[nH]c1C (some centres unmarked)", "> 2000 nM"),
    ("CN=S(C)(=O)c1cc(-c2ccnc(-c3nc(C)c(C)[nH]3)c2)cc2c1C(=O)N([C@@H](C)C1CC1)C2 (single isomer, unassigned) [Example 25]", "500 to 2000 nM"),
    ("Cc1nnc(-c2cc(-c3cc4c(c(S(C)(=O)=O)c3)C(=O)N([C@@H](C)C3CC3)C4)ccn2)[nH]1", "> 2000 nM"),
    ("Cc1[nH]c(-c2cc(-c3cc4c(c(S(C)(=O)=O)c3)C(=O)N([C@@H](C)C3CC3)C4)ccn2)nc1C(=O)N1CC(F)(F)C1 [Example 7d, trifluoroacetate salt]", "100 to 500 nM"),
    ("Cc1[nH]c(-c2cc(-c3cc4c(c(S(C)(=O)=O)c3)C(=O)N([C@@H](C)C3CC3)C4)ccn2)nc1C(=O)N(C)C1CCOCC1 [Example 7o, trifluoroacetate salt]", "100 to 500 nM"),
]

Req: What measured IC50 is associated with CNC(=O)c1nc(-c2cc(-c3cc4c(c(S(C)(=O)=O)c3)C(=O)N([C@@H](C)C3CC3)C4)ccn2)[nH]c1C [Example 7, trifluoroacetate salt] on PI3Kδ (p110δ/p85α) (Homo sapiens (Human))?
Resp: 500 to 2000 nM

Req: Also need Cc1[nH]c(-c2cc(-c3cc4c(c(S(C)(=O)=O)c3)C(=O)N([C@@H](C)C3CC3)C4)ccn2)nc1C(=O)NC1CCOCC1 [Example 7b, trifluoroacetate salt] , thanks.
Resp: 100 to 500 nM

Req: Also need Cc1nc(-c2cc(-c3cc4c(c(S(C)(=N)=O)c3)C(=O)N([C@@H](C)C3CC3)C4)ccn2)[nH]c1C (single isomer, unassigned) [Example 22] , thanks.
Resp: 500 to 2000 nM

Req: Also need Cc1cc(-c2cc(-c3cc4c(c(S(C)(=O)=O)c3)C(=O)N([C@@H](C)C3CC3)C4)cnn2)[nH]n1 [Example 10, trifluoroacetate salt] , thanks.
Resp: > 2000 nM

Req: Also need Cc1[nH]c(-c2cc(-c3cc4c(c(S(C)(=O)=O)c3)C(=O)N([C@@H](C)C3CC3)C4)ccn2)nc1C(=O)NC(C)C [Example 7a, trifluoroacetate salt] , thanks.
Resp: 100 to 500 nM

====

Molecular target: PI3Kδ (p110δ/p85α) (Homo sapiens (Human))
Test: PI3Kδ scintillation proximity assay
Settings: recombinant human PI3Kδ 3.4 nM, 20 μM PIP2, 2 μM ATP, 120 min, room temperature
pIC50: −log10 of the molar value. Counter-ions that a name gives are not always drawn.
Property Label: pIC50

The following compounds have reported results that may help.
# Compound, Property Label, Result
rows = [
    ("Cc1nc(-c2cc(-c3cc4c(c(S(C)(=O)=O)c3)C(=O)N([C@@H](C)C3CC3)C4)cnn2)[nH]c1C [Example 8, Trifluoroacetate Salt]", "pIC50", "< 5.70"),
    ("CCN(C)C(=O)c1nc(-c2cc(-c3cc4c(c(S(C)(=O)=O)c3)C(=O)N([C@@H](C)C3CC3)C4)ccn2)[nH]c1C [Example 7s, trifluoroacetate salt]", "pIC50", "5.70 to 6.30"),
    ("CCC(C)NC(=O)c1[nH]c(-c2cc(-c3cc4c(c(S(C)(=O)=O)c3)C(=O)N([C@@H](C)C3CC3)C4)ccn2)nc1C (single isomer, unassigned)", "pIC50", "6.30 to 7.00"),
    ("Cc1[nH]c(-c2cc(-c3cc4c(c(S(C)(=O)=O)c3)C(=O)N([C@@H](C)C3CC3)C4)ccn2)nc1C(=O)N1CC2(COC2)C1 [Example 7p, trifluoroacetate salt]", "pIC50", "5.70 to 6.30"),
]

Next, consider the following compound.
Req: What measured pIC50 is associated with Cc1cnc(-c2cc(-c3cc4c(c(N=S(C)(C)=O)c3)C(=O)N([C@@H](C)C3CC3)C4)ccn2)[nH]1 (single isomer, unassigned) on PI3Kδ (p110δ/p85α) (Homo sapiens (Human))?
Resp: < 5.70
